assay: Pharmacokinetics in female BALB/c nude mice bearing A375 xenografts, 1 day dosing (PK and PD study): plasma, tumor and brain concentrations, AUC; type: in vivo; conditions: mouse, tumor, po, 1.5 mg/kg, 1.5 mg/kg p.o. BID × 1 day; post 2nd dose; 4 h; read-out: Mean Concentration in Tumor ± SEM
measure: concentration at 4 h (ng/g)
Reply numerically in ng/g, unit not repeated.

[Q] concentration at 4 h lookup needed for `CCN(C)S(=O)(=O)Nc1ccc(F)c(Oc2ccc3ncn([C@H]4COC5(CCN(C6CC7(C6)CN(c6cc8c(cc6F)c(N6CCC(=O)NC6=O)nn8C)C7)CC5)C4)c(=O)c3c2)c1C#N` , thanks.
[A] 552

* * *

molecular target: BRAF V600E (Homo sapiens, UniProt P15056+Q96SW2, V600E); construct: knock-in of the HiBiT tag to the endogenous BRAF V600E locus; host or cells: A375.10 (A375 clonal line, CRISPR HiBiT knock-in at the endogenous BRAF V600E locus); experiment: BRAF V600E HiBiT Degradation Assay; format: cell-based; conditions: A375.10 cells, BRAF V600E, 2 hours; read-out: HiBiT-Degradation A375.10 BRAF 2 hours DC50
Sequence (P15056 whole entry V600E): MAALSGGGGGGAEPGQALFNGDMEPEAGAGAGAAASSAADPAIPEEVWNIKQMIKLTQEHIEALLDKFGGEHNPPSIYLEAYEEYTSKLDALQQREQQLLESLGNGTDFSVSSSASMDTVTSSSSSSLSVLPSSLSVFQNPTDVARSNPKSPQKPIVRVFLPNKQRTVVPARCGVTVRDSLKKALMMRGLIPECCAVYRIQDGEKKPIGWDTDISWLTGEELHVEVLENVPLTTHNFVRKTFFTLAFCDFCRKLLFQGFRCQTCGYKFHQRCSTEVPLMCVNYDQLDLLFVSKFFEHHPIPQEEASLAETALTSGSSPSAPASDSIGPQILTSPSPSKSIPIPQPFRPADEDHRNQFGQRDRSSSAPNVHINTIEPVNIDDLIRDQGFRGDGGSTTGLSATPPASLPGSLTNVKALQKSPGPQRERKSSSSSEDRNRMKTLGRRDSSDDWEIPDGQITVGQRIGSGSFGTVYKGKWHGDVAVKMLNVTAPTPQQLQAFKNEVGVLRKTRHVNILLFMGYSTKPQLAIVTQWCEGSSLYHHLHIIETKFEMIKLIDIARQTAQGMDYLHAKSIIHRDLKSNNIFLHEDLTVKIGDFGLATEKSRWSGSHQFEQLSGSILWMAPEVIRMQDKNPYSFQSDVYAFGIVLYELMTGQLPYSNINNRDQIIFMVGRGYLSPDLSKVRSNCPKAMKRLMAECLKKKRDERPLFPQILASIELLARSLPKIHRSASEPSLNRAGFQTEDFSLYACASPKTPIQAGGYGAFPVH
Sequence (Q96SW2 whole entry): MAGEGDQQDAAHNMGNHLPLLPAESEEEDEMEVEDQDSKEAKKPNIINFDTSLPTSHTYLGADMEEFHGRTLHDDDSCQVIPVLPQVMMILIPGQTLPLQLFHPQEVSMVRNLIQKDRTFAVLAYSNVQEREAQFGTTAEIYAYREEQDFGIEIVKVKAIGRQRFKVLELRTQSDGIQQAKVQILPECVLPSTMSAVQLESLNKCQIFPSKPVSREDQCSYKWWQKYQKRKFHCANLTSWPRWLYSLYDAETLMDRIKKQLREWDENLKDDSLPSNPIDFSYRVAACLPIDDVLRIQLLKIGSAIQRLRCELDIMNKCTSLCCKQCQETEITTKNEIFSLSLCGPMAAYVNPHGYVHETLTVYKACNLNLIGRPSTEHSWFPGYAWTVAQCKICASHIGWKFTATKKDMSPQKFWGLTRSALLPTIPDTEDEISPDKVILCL
Sequence (Q16531 whole entry partner): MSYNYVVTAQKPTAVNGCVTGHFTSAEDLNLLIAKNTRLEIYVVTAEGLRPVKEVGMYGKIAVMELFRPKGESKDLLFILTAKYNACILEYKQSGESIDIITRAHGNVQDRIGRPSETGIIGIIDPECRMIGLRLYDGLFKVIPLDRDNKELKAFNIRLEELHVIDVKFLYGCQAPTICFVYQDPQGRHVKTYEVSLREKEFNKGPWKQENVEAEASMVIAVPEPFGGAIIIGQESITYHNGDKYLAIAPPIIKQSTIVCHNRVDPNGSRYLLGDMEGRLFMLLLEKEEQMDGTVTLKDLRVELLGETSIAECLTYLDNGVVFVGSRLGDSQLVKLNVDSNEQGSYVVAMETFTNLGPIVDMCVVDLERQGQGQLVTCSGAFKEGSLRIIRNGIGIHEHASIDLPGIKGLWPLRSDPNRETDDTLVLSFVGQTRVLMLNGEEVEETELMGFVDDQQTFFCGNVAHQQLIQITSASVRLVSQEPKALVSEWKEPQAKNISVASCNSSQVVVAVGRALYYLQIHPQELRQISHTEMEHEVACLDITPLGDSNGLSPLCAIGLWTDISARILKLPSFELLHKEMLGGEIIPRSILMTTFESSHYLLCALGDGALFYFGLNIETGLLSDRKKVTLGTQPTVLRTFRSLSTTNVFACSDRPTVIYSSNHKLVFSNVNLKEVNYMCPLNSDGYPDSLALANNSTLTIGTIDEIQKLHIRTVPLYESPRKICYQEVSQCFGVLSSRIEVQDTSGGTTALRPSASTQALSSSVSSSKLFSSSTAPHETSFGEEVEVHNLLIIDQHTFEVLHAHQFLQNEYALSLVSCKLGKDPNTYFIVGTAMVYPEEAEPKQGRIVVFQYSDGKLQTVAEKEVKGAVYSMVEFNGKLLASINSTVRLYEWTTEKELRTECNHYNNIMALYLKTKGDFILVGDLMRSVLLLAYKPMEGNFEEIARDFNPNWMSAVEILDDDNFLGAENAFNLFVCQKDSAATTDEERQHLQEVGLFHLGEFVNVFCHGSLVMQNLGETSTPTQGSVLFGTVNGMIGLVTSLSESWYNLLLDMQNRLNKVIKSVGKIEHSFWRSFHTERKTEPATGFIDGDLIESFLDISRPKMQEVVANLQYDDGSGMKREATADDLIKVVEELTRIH
measure: DC50

[Q] DC50 lookup needed for Cn1nc(N2CCC(=O)NC2=O)c2cc(F)c(C3CCC(N4CCC5(CC4)CC(n4cnc6ccc(Oc7c(F)ccc(NS(=O)(=O)C8CCCC8)c7C#N)cc6c4=O)C5)CC3)cc21 (single isomer, unassigned) [Compound 93] , thanks.
[A] < 1000 nM

[Q] How about CCN(C)S(=O)(=O)Nc1ccc(F)c(Oc2ccc3ncn(C4CC5(CCN(C6CCC(c7cc8c(cc7F)c(N7CCC(=O)NC7=O)nn8C)CC6)C5)C4)c(=O)c3c2)c1C#N (single isomer, unassigned) [Compound 205] ?
[A] > 10000 nM

[Q] How about CCN(C)S(=O)(=O)Nc1ccc(F)c(Oc2ccc3ncn(C4CC5(CCC(N6CC[C@@H](c7cc8c(cc7F)c(N7CCC(=O)NC7=O)nn8C)C(F)(F)C6)CC5)C4)c(=O)c3c2)c1C#N (stereo partly drawn) ?
[A] < 1000 nM

* * *

assay: Pharmacokinetics after 21 days dosing in the efficacy study (plasma, tumor and brain concentrations; plasma AUC at steady state), Example 14; assay type: in vivo, female BALB/c nude mice; conditions: mouse, tumor, po; 0.75 mg/kg p.o. BID x 21 days; 24 h; read-out: Concentration in Tumor
measure: concentration at 24 h (ng/g)
Reply numerically in ng/g, unit not repeated.

[Q] concentration at 24 h lookup needed for CCN(C)S(=O)(=O)Nc1ccc(F)c(Oc2ccc3ncn(C4CC5(CCN(C6CC7(C6)CN(c6cc8c(cc6F)c(N6CCC(=O)NC6=O)nn8C)C7)CC5)C4)c(=O)c3c2)c1C#N (stereo not shown) , thanks.
[A] 33

* * *

molecular target: BRAF V600E (Homo sapiens, UniProt P15056+Q96SW2, V600E); construct: knock-in of the HiBiT tag to the endogenous BRAF V600E locus; host or cells: A375.10 (A375 clonal line, CRISPR HiBiT knock-in at the endogenous BRAF V600E locus); test: BRAF V600E HiBiT Degradation Assay; assay type: cell-based; details: A375.10 cells, BRAF V600E, 2 hours; read-out: HiBiT-Degradation A375.10 BRAF 2 hours DC50
measure: DC50

[Q] DC50 lookup needed for CCN(C)S(=O)(=O)Nc1ccc(F)c(Oc2ccc3ncn([C@H]4CO[C@@]5(CCN(C6CCC(c7cc8c(cc7F)c(N7CCC(=O)NC7=O)nn8C)CC6)C5)C4)c(=O)c3c2)c1C#N (single isomer, unassigned) [Compound 293] , thanks.
[A] < 1000 nM

[Q] How about CCN(C)S(=O)(=O)Nc1ccc(F)c(Nc2ccc3ncn([C@H]4COC5(CCN(C6CCC(c7ccc(NC8CCC(=O)NC8=O)cc7F)CC6)CC5)C4)c(=O)c3c2)c1C#N (single isomer, unassigned) [Compound 56] ?
[A] < 1000 nM

* * *

assay: Example 9 pharmacokinetics assay for efficacy study Part I and II (plasma, liver); format: in vivo, BALB/c nude mice; settings: mouse, liver, po; 10 mg/kg, p.o., BID × 14 days; 6 h following treatment; ± SEM; read-out: Mean Concentration in Liver
Please go through the items and note down their concentration at 6 h.
Reply numerically in ng/g, unit not repeated.

[Q] concentration at 6 h lookup needed for CCN(C)S(=O)(=O)Nc1ccc(F)c(Oc2ccc3ncn(C4CC5(CCN(C6CC7(CCN(c8cc9c(cc8F)c(N8CCC(=O)NC8=O)nn9C)CC7)C6)CC5)C4)c(=O)c3c2)c1C#N (centres unmarked) , thanks.
[A] 3320

[Q] How about `CO[C@H]1CCN(S(=O)(=O)Nc2ccc(F)c(Oc3ccc4ncn([C@H]5COC6(CCN(C7CC8(C7)CN(c7cc9c(cc7F)c(N7CCC(=O)NC7=O)nn9C)C8)CC6)C5)c(=O)c4c3)c2C#N)C1` ?
[A] 2450

[Q] How about CCN(C)S(=O)(=O)Nc1ccc(F)c(Oc2ccc3ncc(OC4CC5(CCN(C6CCC(c7cc8c(cc7F)c(N7CCC(=O)NC7=O)nn8C)CC6)CC5)C4)nc3c2)c1C#N (single isomer, unassigned) ?
[A] 5640

[Q] How about `Cn1nc(N2CCC(=O)NC2=O)c2cc(F)c(N3CC4(CC(N5CCC6(CC5)C[C@@H](n5cnc7ccc(Oc8c(F)ccc(NS(=O)(=O)N9CC[C@@H](F)C9)c8C#N)cc7c5=O)CO6)C4)C3)cc21` ?
[A] 1910

[Q] How about `CO[C@@H]1CCN(S(=O)(=O)Nc2ccc(F)c(Oc3ccc4ncn([C@H]5COC6(CCN(C7CC8(C7)CN(c7cc9c(cc7F)c(N7CCC(=O)NC7=O)nn9C)C8)CC6)C5)c(=O)c4c3)c2C#N)C1` ?
[A] 2470

* * *

assay: Example 7 pharmacokinetics assay for PKPD study (plasma, tumor, liver); assay type: in vivo, BALB/c nude mice; conditions: mouse, tumor, po; 10 mg/kg, p.o., single dose; 12 h; read-out: Concentration in Tumor (mean ± SEM)
measure: concentration at 12 h (ng/g)
Reply numerically in ng/g, unit not repeated.

[Q] concentration at 12 h lookup needed for CCN(C)S(=O)(=O)Nc1ccc(F)c(Oc2ccc3ncc(C4CC5(CCN(C6CCC(c7cc8c(cc7F)c(N7CCC(=O)NC7=O)nn8C)CC6)CC5)C4)nc3c2)c1C#N (single isomer, unassigned) , thanks.
[A] 82.6

[Q] How about `CCN(C)S(=O)(=O)Nc1ccc(F)c(Oc2ccc3ncn(C4CC5(CCN(C6CCN(c7cc8c(cc7F)c(N7CCC(=O)NC7=O)nn8C)CC6)CC5)C4)c(=O)c3c2)c1C#N` ?
[A] 102

[Q] How about CCN(C)S(=O)(=O)Nc1ccc(F)c(Oc2ccc3ncn(C4CC5(CCN(C6CC7(C6)CN(c6cc8c(cc6F)c(N6CCC(=O)NC6=O)nn8C)C7)CC5)C4)c(=O)c3c2)c1C#N (stereo not shown) ?
[A] 818

[Q] How about CCN(C)S(=O)(=O)Nc1ccc(F)c(Oc2ccc3ncc(OCC4CCN(C5CCC(c6cc7c(cc6F)c(N6CCC(=O)NC6=O)nn7C)CC5)CC4)nc3c2)c1C#N (single isomer, unassigned) ?
[A] 509

* * *

Please go through the items and note down their DC50.
biological target: BRAF V600E (Homo sapiens, UniProt P15056+Q96SW2, V600E); construct: knock-in of the HiBiT tag to the endogenous BRAF V600E locus; host or cells: A375.10 (A375 clonal line, CRISPR HiBiT knock-in at the endogenous BRAF V600E locus); experiment: BRAF V600E HiBiT Degradation Assay; format: cell-based; conditions: A375.10 cells, BRAF V600E, 2 hours; read-out: HiBiT-Degradation A375.10 BRAF 2 hours DC50

[Q] DC50 lookup needed for CCN(C)S(=O)(=O)Nc1ccc(F)c(Oc2ccc3ncn(C4CC5(CC(N6CC[C@H](c7cc8c(cc7F)c(N7CCC(=O)NC7=O)nn8C)C(F)(F)C6)C5)C4)c(=O)c3c2)c1C#N (some centres unmarked) , thanks.
[A] < 1 µM

[Q] How about Cn1nc(N2CCC(=O)NC2=O)c2cc(F)c(C3CCC(N4CCC5(CC4)CC(c4cnc6ccc(Oc7c(F)ccc(NS(=O)(=O)N8CC[C@@H](F)C8)c7C#N)cc6n4)C5)CC3)cc21 (some centres unmarked) ?
[A] < 1 µM

[Q] How about `CCN(C)S(=O)(=O)Nc1ccc(F)c(Oc2ccc3ncn(CC4CCN(C5CCN(c6cc7c(cc6F)c(N6CCC(=O)NC6=O)nn7C)CC5)CC4)c(=O)c3c2)c1C#N` ?
[A] < 1 µM

[Q] How about CCN(C)S(=O)(=O)Nc1ccc(F)c(Oc2ccc3ncn(C4CC5(C4)CN(C4CCC(c6cc7c(cc6F)c(N6CCC(=O)NC6=O)nn7C)CC4F)C5)c(=O)c3c2)c1C#N (single isomer, unassigned) [Compound 299] ?
[A] 1 to 10 µM

[Q] How about CCN(C)S(=O)(=O)Nc1ccc(F)c(Oc2ccc3ncn([C@H]4COC5(CCN(C6CC(c7ccc(NC8CCC(=O)NC8=O)cc7F)C6)CC5)C4)c(=O)c3c2)c1C#N (single isomer, unassigned) [Compound 62] ?
[A] < 1 µM

[Q] How about CCN(C)S(=O)(=O)Nc1ccc(F)c(Oc2ccc3ncn([C@@H]4CO[C@@]5(CCN(C6CCC(c7cc8c(cc7F)c(N7CCC(=O)NC7=O)nn8C)CC6)C5)C4)c(=O)c3c2)c1C#N (single isomer, unassigned) ?
[A] < 1 µM

[Q] How about CCN(C)S(=O)(=O)Nc1ccc(F)c(Oc2ccc3ncn([C@@H]4CCC5(CCN(C6CCC(c7ccc(NC8CCC(=O)NC8=O)cc7F)CC6)CC5)C4)c(=O)c3c2)c1C#N (single isomer, unassigned) ?
[A] < 1 µM

[Q] How about CN(CCO)S(=O)(=O)Nc1ccc(F)c(Oc2ccc3ncn([C@H]4COC5(CCN(C6CCC(c7ccc(NC8CCC(=O)NC8=O)cc7F)CC6)CC5)C4)c(=O)c3c2)c1C#N (single isomer, unassigned) ?
[A] < 1 µM

[Q] How about CCN(C)S(=O)(=O)Nc1ccc(F)c(Nc2ccc3ncn([C@H]4COC5(CCN(C6CCC(c7cc8c(cc7F)c(N7CCC(=O)NC7=O)nn8C)CC6)CC5)C4)c(=O)c3c2F)c1C#N (single isomer, unassigned) ?
[A] < 1 µM

[Q] How about CCN(C)S(=O)(=O)Nc1ccc(F)c(Oc2ccc3ncn([C@@H]4CO[C@]5(CCN(C6CCC(c7cc8c(cc7F)c(N7CCC(=O)NC7=O)nn8C)CC6)C5)C4)c(=O)c3c2)c1C#N (single isomer, unassigned) [Compound 291] ?
[A] > 10 µM

[Q] How about CCN(C)S(=O)(=O)Nc1ccc(F)c(Oc2ccc3ncn([C@H]4COC5(CCC(N6C7COCC6CC(c6cc8c(cc6F)c(N6CCC(=O)NC6=O)nn8C)C7)CC5)C4)c(=O)c3c2)c1C#N (single isomer, unassigned) ?
[A] < 1 µM

[Q] How about CN(CCO)S(=O)(=O)Nc1ccc(F)c(Oc2ccc3ncn(C4CC5(CCN(C6CC7(C6)CN(c6cc8c(cc6F)c(N6CCC(=O)NC6=O)nn8C)C7)CC5)C4)c(=O)c3c2)c1F (centres unmarked) ?
[A] 1 to 10 µM

[Q] How about CCN(C)S(=O)(=O)Nc1ccc(F)c(Oc2ccc3ncn([C@H]4COC5(CCC(N6CCC(c7ccc(NC8CCC(=O)NC8=O)cc7F)C(F)(F)C6)CC5)C4)c(=O)c3c2)c1C#N (single isomer, unassigned) ?
[A] < 1 µM

[Q] How about CCN(C)S(=O)(=O)Nc1ccc(F)c(Oc2ccc3ncn(C4[C@H]5CN(C6CCC(c7cc8c(cc7F)c(N7CCC(=O)NC7=O)nn8C)CC6)C[C@@H]45)c(=O)c3c2)c1C#N (single isomer, unassigned) ?
[A] < 1 µM

[Q] How about `CCN(C)S(=O)(=O)Nc1ccc(F)c(Oc2ccc3ncn([C@H]4COC5(C4)CN(C4CC6(C4)CN(c4cc7c(cc4F)c(N4CCC(=O)NC4=O)nn7C)C6)C5)c(=O)c3c2)c1C#N` ?
[A] < 1 µM

[Q] How about CCN(C)S(=O)(=O)Nc1ccc(F)c(Nc2ccc3ncn([C@@H]4COC5(CCN(C6CCC(c7ccc(NC8CCC(=O)NC8=O)cc7F)CC6)CC5)C4)c(=O)c3c2F)c1C#N (single isomer, unassigned) ?
[A] < 1 µM

[Q] How about CO[C@@H]1CCN(S(=O)(=O)Nc2ccc(F)c(Oc3ccc4ncn([C@H]5COC6(CCN(C7CCC(c8cc9c(cc8F)c(N8CCC(=O)NC8=O)nn9C)CC7)CC6)C5)c(=O)c4c3)c2C#N)C1 (single isomer, unassigned) ?
[A] < 1 µM
